This collection of values is drawn from patent US8314240B2.

Biological target: rat EP1 receptor (Rattus norvegicus, UniProt P70597)
Sequence (P70597 1-405): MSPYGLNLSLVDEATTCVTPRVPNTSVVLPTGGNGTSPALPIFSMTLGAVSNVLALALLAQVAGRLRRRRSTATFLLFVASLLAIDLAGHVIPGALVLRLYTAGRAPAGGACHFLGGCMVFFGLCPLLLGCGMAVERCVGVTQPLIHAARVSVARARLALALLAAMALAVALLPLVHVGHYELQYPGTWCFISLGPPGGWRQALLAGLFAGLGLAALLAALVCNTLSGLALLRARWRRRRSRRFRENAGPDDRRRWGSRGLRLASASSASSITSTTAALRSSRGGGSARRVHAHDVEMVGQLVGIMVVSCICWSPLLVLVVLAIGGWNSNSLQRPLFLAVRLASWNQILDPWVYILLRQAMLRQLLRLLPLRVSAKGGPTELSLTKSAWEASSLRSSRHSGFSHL
Assay: Test to measure receptor antagonistic activity using EP1 receptor-expressing cells (PGE2-induced intracellular Ca change, FLIPR)
Settings: HEK293 cells stably expressing rat EP1 receptor, 100 nM PGE2
value-kind: pIC50
Schema: pIC50 number; meaning minus log10 of the concentration expressed in molar units.

Task: Field request: pIC50 | item: Cc1cc(C(=O)O)ccc1COc1cc2c(cc1N(CC(C)F)S(=O)(=O)c1cc(F)cc(F)c1)CCC2 (centres unmarked)
Result: 9.52

Task: Next record, please: Cc1csc(S(=O)(=O)N(CC(C)F)c2cc(C)c(Cl)cc2OCc2ccc(C(=O)O)cc2)n1 (centres unmarked)
Result: 9.49

Task: Next record, please: `C[C@@H](F)CN(c1cc2c(cc1OCc1ccc(C(=O)O)cc1)CCC2)S(=O)(=O)c1ccccn1`
Result: 8.74

Task: Next record, please: Cc1csc(S(=O)(=O)N(CC(C)F)c2cc3c(cc2OCc2ccc(C(=O)O)cc2C)CCC3)n1 (centres unmarked)
Result: 9.28

Task: Next record, please: `Cc1cc(OCc2ccc(C(=O)O)cc2)c(N(C[C@@H](C)CF)S(=O)(=O)c2ccccn2)cc1C`
Result: 8.72

Task: Next record, please: Cc1csc(S(=O)(=O)N(CC(C)F)c2cc3c(cc2OCc2ccc(C(=O)O)s2)CCC3)n1 (centres unmarked)
Result: 9.07

Task: Next record, please: `C[C@H](F)CN(c1cc2c(cc1OCc1ccc(C(=O)O)cc1)CCC2)S(=O)(=O)c1cccnc1`
Result: 9.40

Task: Next record, please: `Cc1csc(S(=O)(=O)N(C[C@H](C)F)c2cc3c(cc2OCc2ccc(C(=O)O)c(F)c2)CCC3)n1`
Result: 9.05

----------
Task for the reader: assign each of the following molecules its reported inhibition at 20 min.
Biological target: CYP3A4 (Homo sapiens, UniProt P08684)
Construct: human liver microsome (0.1 mg protein/ml); from tissue; host or cells: human liver microsome
Sequence (P08684 whole entry): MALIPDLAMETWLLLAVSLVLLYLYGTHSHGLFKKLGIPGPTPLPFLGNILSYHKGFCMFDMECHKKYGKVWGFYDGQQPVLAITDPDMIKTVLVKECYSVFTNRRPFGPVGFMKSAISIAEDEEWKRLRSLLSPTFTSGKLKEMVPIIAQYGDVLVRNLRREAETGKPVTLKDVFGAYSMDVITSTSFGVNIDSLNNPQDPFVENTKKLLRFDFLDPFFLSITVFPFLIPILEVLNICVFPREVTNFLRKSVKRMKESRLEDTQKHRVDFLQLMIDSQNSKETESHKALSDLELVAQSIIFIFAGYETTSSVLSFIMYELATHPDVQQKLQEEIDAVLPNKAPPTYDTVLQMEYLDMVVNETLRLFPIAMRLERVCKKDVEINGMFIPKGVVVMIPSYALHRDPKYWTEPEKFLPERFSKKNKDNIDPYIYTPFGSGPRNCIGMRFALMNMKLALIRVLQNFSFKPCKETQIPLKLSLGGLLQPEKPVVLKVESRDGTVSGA
Assay: Cytochrome P450 (CYP) 3A4 enzyme inhibition, Inhibition Test II (preincubation)
Assay type: in vitro ADME
Conditions: human liver microsomes, pH 7.4, probe midazolam; human liver microsome 0.1 mg protein/ml, 30 minutes preincubation with test compound, then midazolam 20 minutes; read-out: Inhibitory activity II (%)
# answer = value followed by unit

Task: Field request: inhibition at 20 min | item: `Cc1cc(OCc2ccc(C(=O)O)cc2)c(N(C[C@@H](C)CF)S(=O)(=O)c2ccccn2)cc1C`
Result: 5%

Task: Next record, please: `C[C@@H](F)CN(c1cc2c(cc1OCc1ccc(C(=O)O)cc1)CCC2)S(=O)(=O)c1ccccn1`
Result: 0%

Task: Next record, please: `C[C@H](F)CN(c1cc2c(cc1OCc1ccc(C(=O)O)cc1)CCC2)S(=O)(=O)c1cccnc1`
Result: 7%

----------
Task for the reader: assign each of the following compounds its reported inhibition at 20 min.
Molecular target: CYP3A4 (Homo sapiens)
Construct: human liver microsome (0.1 mg protein/ml); from tissue; host or cells: human liver microsome
Assay: Cytochrome P450 (CYP) 3A4 enzyme inhibition, Inhibition Test I
Type: in vitro ADME
Settings: human liver microsomes, probe midazolam; human liver microsome 0.1 mg protein/ml, substrate midazolam, 37° C. 20 minutes; read-out: Inhibitory activity I (%)
Experimental: Test Example 4 Test on Cytochrome P450 (CYP) 3A4 Enzyme Inhibition (Evaluation of Drug Interaction) (1) Inhibition Test I (Calculation of Inhibitory Activity I) Using a 96-well plate, a substrate (midazolam), a test compound and human liver microsome (0.1 mg protein/ml) were incubated at 37° C. for 20 minutes in a 100 mM phosphate buffer containing 0.1 mM EDTA and 1 mM NADPH. […] Thereafter, each sample was analyzed by LC/MS, and the inhibitory activity I was calculated using the following formula. […]
# value in %; strip the unit string

Task: What inhibition at 20 min appears in the records for this compound with CYP3A4 (Homo sapiens)? C[C@H](F)CN(c1cc2c(cc1OCc1ccc(C(=O)O)cc1)CCC2)S(=O)(=O)c1cccnc1 [Example 103]
Result: 12

Task: Next record, please: C[C@@H](F)CN(c1cc2c(cc1OCc1ccc(C(=O)O)cc1)CCC2)S(=O)(=O)c1ccccn1 [Example 102]
Result: 1

Task: Next record, please: Cc1cc(OCc2ccc(C(=O)O)cc2)c(N(C[C@@H](C)CF)S(=O)(=O)c2ccccn2)cc1C [Example 117]
Result: 3
